- measurement description: Human HepG2 cell viability assay in 384 well format
- Assay type: toxicity, cell-based
- Parameters: dose 125 nL, time 70.5 hour; concentration not given beside the values
- condition summary: HepG2 cells, read-out: Inhibition
result type: cytotoxicity at 70.5 h (%)
Record the value in %, omitting the unit from your answer.

{"molecule": "CC(=O)N1CCC(c2nccnc2Oc2ccccc2)CC1", "cytotoxicity at 70.5 h (%)": 1.62}
{"molecule": "c1ccc(-c2nnc([C@H]3CCN(C4CCC4)C3)o2)cc1", "cytotoxicity at 70.5 h (%)": 0.134}
{"molecule": "Cc1nn(C)c(Cl)c1C1CCCN1Cc1nnc(C2CC2)n1C (stereo not drawn)", "cytotoxicity at 70.5 h (%)": -0.0718}
{"molecule": "O[C@H]1[C@H](n2cc(-c3ccccc3)nn2)c2ccccc2C12CCNCC2", "cytotoxicity at 70.5 h (%)": 2.04}
{"molecule": "Cc1nc(NC(=O)C2(C)CN(C)CCO2)sc1C (stereo not drawn)", "cytotoxicity at 70.5 h (%)": -2.07}

Provide only the value of recorded cytotoxicity at 70.5 h for CC(Cc1cn(CCc2nnn[nH]2)nn1)c1ccccc1 (stereo not drawn)
-5.17

Provide only the value of recorded cytotoxicity at 70.5 h for CC1(C(=O)N2CCOCC2)CNCCO1 (stereo not drawn)
-7.18

###

Collected cytotoxicity at 70.5 h values appear next to each entry.
- measurement description: Human HepG2 cell viability assay in 384 well format
- Type: toxicity, cell-based
- Parameters: dose 125 nL, time 70.5 hour; concentration not given beside the values
- condition summary: HepG2 cells, read-out: Inhibition
Record the value in %, omitting the unit from your answer.

Answered cases to consult:
{"molecule": "Cc1ccc(F)cc1NC(=O)c1[nH]ncc1Br", "unit label": "%", "observed value": -7.98}
{"molecule": "COc1ccccc1N1CCN(C(=O)Cn2nc(C)c(C)c2C)C(C)C1 (configuration not stated)", "unit label": "%", "observed value": -3.01}
{"molecule": "Cc1csc(C2(NCC(O)COC(C)C)CCCC2)n1 (configuration not stated)", "unit label": "%", "observed value": -11.4}
{"molecule": "Cc1nc(CN2CCCC(N(C)Cc3cnn(C)c3)C2)no1 (configuration not stated)", "unit label": "%", "observed value": 89.5}
{"molecule": "Cc1nc(-c2ccco2)ccc1C(=O)NCCCN1CCOCC1", "unit label": "%", "observed value": -98.3}
{"molecule": "CSc1ccc(NCC(=O)NC(=O)NCC(F)(F)F)cc1F", "unit label": "%", "observed value": 19.5}
{"molecule": "Cc1noc(C)c1CN1CC[C@H]2OCC[C@@]2(C(=O)N2CCCO2)C1", "unit label": "%", "observed value": -7.09}
{"molecule": "Cc1cccc(-n2cc(CN3CCN(C)[C@@H]4CS(=O)(=O)C[C@@H]43)cn2)c1", "unit label": "%", "observed value": -15.9}

Provide only the value of recorded cytotoxicity at 70.5 h for CC(=O)N1CCCN(C(=O)NC(C)c2csc3ccccc23)CC1 (configuration not stated)
-6.35

Provide only the value of recorded cytotoxicity at 70.5 h for Cc1ccc(C(NC(=O)CCCN2CCCCC2)C(=O)O)cc1 (configuration not stated)
-12.7

Provide only the value of recorded cytotoxicity at 70.5 h for Cc1nc(-c2nnc[nH]2)sc1C(=O)N1CCCC1Cn1cccn1 (configuration not stated)
-3.3

Provide only the value of recorded cytotoxicity at 70.5 h for Cn1cccc1C(=O)NCc1cn2c(n1)CN(CC1CCOC1)CC2 (configuration not stated)
17.2

Provide only the value of recorded cytotoxicity at 70.5 h for COc1ccc2c(c1)C(C(=O)N(C)CCc1cnn(C)c1)CC(=O)N2 (configuration not stated)
-8.46
